- MEASURED_ON: protein-protein interaction between Kras and SOS1 (biotin-tagged human Kras loaded with GDP, His-tagged human SOS1) (Homo sapiens (Human), UniProt P01116, G12D)
- PROTOCOL: Protein-protein interaction inhibition between Kras and SOS1 (KrasG12D-SOS PPI) using AlphaScreen;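 also: kras produced in E. coli, Ni-coupled donor beads and streptavidin acceptor beads, excitation 680 nm with emission detected at 520–620 nm via singlet oxygen transfer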
- Type: biochemical
- APPLIED_CONDITIONS: AlphaScreen; biotin-tagged human Kras loaded with GDP, His-tagged human SOS1; read-out: KRAS G12D-SOS PPI IC50
Square brackets hold non-standard residues; d marks the D form. Peptide text beside a SMILES is read from it. * marks the point of attachment. hPhe(3-Cl-4-CF3) = N[C@@H](CCc1ccc(C(F)(F)F)c(Cl)c1)C(=O)O; Gly(cPent) = N[C@H](C(=O)O)C1CCCC1; NMeCha = CN[C@@H](CC1CCCCC1)C(=O)O; N(CH2CH2)2CF2 = FC1(F)CCN(*)CC1; NMeD = CN[C@@H](CC(=O)O)C(=O)O; NMeL = CN[C@@H](CC(C)C)C(=O)O; NMeV = CN[C@H](C(=O)O)C(C)C; d(β3hA) = C[C@@H](N)CC(=O)O; NMeA = CN[C@@H](C)C(=O)O; Ac5c = NC1(C(=O)O)CCCC1; Aze = O=C(O)[C@@H]1CCN1; Sar = CNCC(=O)O
Task for the reader: assign each of the following compounds its reported IC50.

[in] Fill in the blank: the reported IC50 of CC(C)C[C@H]1C(=O)N[C@@H](C2CCCC2)C(=O)N(C)[C@@H](C)C(=O)N2CC[C@H]2C(=O)N(C)[C@@H](CC2CCCCC2)C(=O)N(C)CC(=O)N[C@@H](CCc2ccc(C(F)(F)F)c(Cl)c2)C(=O)N2CCC[C@H]2C(=O)NC2(CCCC2)C(=O)N(C)[C@@H](C(C)C)C(=O)N[C@H](C)CC(=O)N1C [Compound 966] (cyclo([Ac5c][NMeV][d(β3hA)][NMeL][Gly(cPent)][NMeA][Aze][NMeCha][Sar][hPhe(3-Cl-4-CF3)]P)) is ____.
[out] 0.11 µM

[in] Fill in the blank: the reported IC50 of CC[C@H](C)[C@@H]1NC(=O)[C@H](CC(C)C)N(C)C(=O)C[C@@H](C)NC(=O)[C@H](C(C)C)N(C)C(=O)C2(CCCC2)NC(=O)[C@H](CC(=O)N2CCC(F)(F)CC2)N(C)C(=O)[C@H](CCc2ccc(C(F)(F)F)c(Cl)c2)NC(=O)CN(C)C(=O)[C@H](CC2CCCCC2)N(C)C(=O)CN(C)C(=O)CN(C)C1=O [Compound 452] (cyclo([Ac5c][NMeV][d(β3hA)][NMeL]I[Sar][Sar][NMeCha][Sar][hPhe(3-Cl-4-CF3)][NMeD](N(CH2CH2)2CF2))) is ____.
[out] 0.08 µM
